Biological target: Tubulin
Assay: Inhibition of Tubulin polymerization after 20 minutes of administration at 30 degree Centigrade
pIC50: −log10 of the molar value.
met means recorded pIC50 is 6 or above; not met means it is below 6.

- Molecule: "COc1cc2c(c(OC)c1OC)-c1ccc(SC)c(=O)cc1[C@@H](OC(=O)c1ccncc1)CC2"
  Assayed system: "Tubulin"
  Group label: "met"
- Molecule: "COc1cc2c(c(OC)c1OC)-c1ccc(SC)c(=O)cc1[C@H](OC(=O)C13CCC(C)(C(=O)O1)C3(C)C)CC2 (some centres not stated)"
  Assayed system: "Tubulin"
  Group label: "not met"

* * *

Item-by-item account of inhibition
Target: Tubulin alpha chain (Sus scrofa)
Settings: at 5 µM
Readout type: inhibition (%)

- Item smiles: "COc1cc2c(c(OC)c1OC)-c1ccc(SC)c(=O)cc1C(=O)CC2"
  Endpoint value: 70
- Item smiles: "CCCC(=O)O[C@H]1CCc2cc(OC)c(OC)c(OC)c2-c2ccc(SC)c(=O)cc21"
  Endpoint value: 66
- Item smiles: "COc1cc2c(c(OC)c1OC)-c1ccc(SC)c(=O)cc1[C@H](OC(C)=O)CC2"
  Endpoint value: 11
- Item smiles: "COc1cc2c(c(OC)c1OC)-c1ccc(SC)c(=O)cc1[C@@H](O)CC2"
  Endpoint value: 85
- Item smiles: "COc1cc2c(c(OC)c1OC)-c1ccc(SC)c(=O)cc1[C@@H](OC(C)=O)CC2"
  Endpoint value: 79
- Item smiles: "COc1cc2c(c(OC)c1OC)-c1ccc(SC)c(=O)cc1[C@H](O)CC2"
  Endpoint value: 16
- Item smiles: "COc1cc2c(c(OC)c1OC)-c1ccc(SC)c(=O)cc1[C@@H](OC(=O)c1cccnc1)CC2"
  Endpoint value: 65
- Item smiles: "COc1cc2c(c(OC)c1OC)-c1ccc(SC)c(=O)cc1[C@@H](OC(=O)c1ccncc1)CC2"
  Endpoint value: 69

* * *

Tested on: CA46
Test: Inhibits the growth of the human Burkitt lymphoma CA46 cell
Assay type: functional, cell-based
pIC50: −log10 of the molar value.
Readout type: pIC50

- Item smiles: "COc1cc2c(c(OC)c1OC)-c1ccc(SC)c(=O)cc1[C@H](OC(C)=O)CC2"
  Readout type: "pIC50"
  Endpoint value: 4.40
- Item smiles: "COc1cc2c(c(OC)c1OC)-c1ccc(SC)c(=O)cc1C(=O)CC2"
  Readout type: "pIC50"
  Endpoint value: 4.74
- Item smiles: "COc1cc2c(c(OC)c1OC)-c1ccc(SC)c(=O)cc1[C@@H](OC(=O)c1cccnc1)CC2"
  Readout type: "pIC50"
  Endpoint value: 4.57
- Item smiles: "COc1cc2c(c(OC)c1OC)-c1ccc(SC)c(=O)cc1[C@@H](O)CC2"
  Readout type: "pIC50"
  Endpoint value: 5.55
- Item smiles: "CCCC(=O)O[C@H]1CCc2cc(OC)c(OC)c(OC)c2-c2ccc(SC)c(=O)cc21"
  Readout type: "pIC50"
  Endpoint value: 4.54
- Item smiles: "COc1cc2c(c(OC)c1OC)-c1ccc(SC)c(=O)cc1[C@@H](OC(C)=O)CC2"
  Readout type: "pIC50"
  Endpoint value: 5.47
- Item smiles: "COc1cc2c(c(OC)c1OC)-c1ccc(SC)c(=O)cc1[C@@H](OC(=O)c1ccncc1)CC2"
  Readout type: "pIC50"
  Endpoint value: 5.55

* * *

Recorded measurements of pIC50, one per entry
Biological target: Tubulin
Test: Inhibition of Tubulin polymerization after 20 minutes of administration at 30 degree Centigrade
pIC50: −log10 of the molar value.

- Compound: "COc1cc2c(c(OC)c1OC)-c1ccc(SC)c(=O)cc1C(OC(=O)c1ccccc1)CC2 (stereo not given)"
  pIC50: 5.85
- Compound: "COc1cc2c(c(OC)c1OC)-c1ccc(SC)c(=O)cc1[C@@H](OC(=O)c1cccnc1)CC2"
  pIC50: 6.12
- Compound: "CCCC(=O)O[C@H]1CCc2cc(OC)c(OC)c(OC)c2-c2ccc(SC)c(=O)cc21"
  pIC50: 6.07
- Compound: "COc1cc2c(c(OC)c1OC)-c1ccc(SC)c(=O)cc1C(Br)CC2 (stereo not given)"
  pIC50: 5.96
- Compound: "CCCC(=O)OC1CCc2cc(OC)c(OC)c(OC)c2-c2ccc(SC)c(=O)cc21 (stereo not given)"
  pIC50: 5.82
- Compound: "COc1cc2c(c(OC)c1OC)-c1ccc(SC)c(=O)cc1C(=O)CC2 [THIOCOLCHICONE]"
  pIC50: 6.12
- Compound: "COc1cc2c(c(OC)c1OC)-c1ccc(SC)c(=O)cc1[C@@H](OC(=O)C13CCC(C)(C(=O)O1)C3(C)C)CC2 (stereo not given in full)"
  pIC50: 5.85
- Compound: "COc1cc2c(c(OC)c1OC)-c1ccc(SC)c(=O)cc1C(OC(=O)c1cccnc1)CC2 (stereo not given)"
  pIC50: 6.06
